Values of IC50 for Type-1 angiotensin II receptor (Homo sapiens), collected from a number of published sources:
Strictly below 4 nM in IC50: 1.0. Otherwise: 0.0.

• CCCc1nc2c(C)cc(C(=O)NCCCc3ccccc3)cc2n1Cc1ccc(-c2ccccc2C(=O)O)cc1 = 0.0
• CCCc1nc(CC)c(C(=O)OCc2ccccc2C(=O)Nc2ccccc2)n1Cc1ccc(-c2ccccc2S(=O)(=O)NC(=O)OCCC(C)C)cc1F = 1.0
• CCCCOC(=O)NS(=O)(=O)c1ccccc1-c1ccc(Cn2c(CCC)nc(CN3CCN(c4ccccn4)CC3)c2C(=O)O)cc1 = 0.0
• CC(O)CCC(=O)N(c1ccc(-c2ccccc2-c2nnn[nH]2)cc1)[C@H](C(=O)O)C(C)C (some centres not stated) = 0.0
• CCCCc1ncc(/C=C2/C(=O)N(CCCC)C(=O)N2Cc2ccc(O)c(O)c2)n1Cc1ccc(C(=O)OC)cc1 = 0.0
• CCCc1nc2c(C)cc(C(=O)NCCN3CCN(C)CC3)cc2n1Cc1ccc(-c2ccccc2S(=O)(=O)Nc2onc(C)c2C)cc1 = 0.0
• CCCc1nc2c(C)cc(C(=O)Nc3ccccc3)cc2n1Cc1ccc(-c2ccccc2S(=O)(=O)Nc2onc(C)c2C)cc1 = 0.0
• CCCc1nc(CC)c(C(=O)OCc2ccccc2Sc2ccccc2)n1Cc1ccc(-c2ccccc2S(=O)(=O)NC(=O)OCCC(C)C)cc1F = 1.0
• Cc1ccnc(SCc2cc(=O)c(OC(=O)c3ccco3)co2)n1 = 0.0
• Cc1ccnc(SCc2cc(=O)c(NC(=O)c3ccccc3)co2)n1 = 0.0
• Cc1ccnc(S(=O)(=O)Cc2cc(=O)c(OC(=O)c3ccc(Cl)c([N+](=O)[O-])c3)co2)n1 = 0.0
• CCCc1nc(CC)c(C(=O)OCc2ccccc2OC)n1Cc1ccc(-c2ccccc2S(=O)(=O)NC(=O)OCCC(C)C)cc1F = 1.0
• CC(=O)Oc1coc(CSc2nccc(C)n2)cc1=O = 0.0
• Cc1cccc(C(=O)Oc2coc(CSc3nccc(C)n3)cc2=O)c1 = 0.0
• CCCCc1ncc(/C=C2\C(=O)NC(=O)N2Cc2cccs2)n1Cc1ccc(C(=O)O)cc1 = 1.0
